System: Staphylococcus aureus ATCC 29213
Assay type: cell-based
condition-context: broth microdilution in MHB, peptide 128 down to 0.5 µg/mL, 20–24 h at 37 °C, no visible growth; range of three independent experiments
Residues, ends and D or L forms follow the SMILES beside them.
reported-property: MIC, S. aureus ATCC 29213 (mg/L)
Response body: numeric value in mg/L, unit text excluded.

compound	reported-property	result-value
CC[C@H](C)[C@H](NC(=O)CNC(=O)[C@H](CO)NC(=O)[C@H](CC(C)C)NC(=O)[C@H](CC(C)C)NC(=O)CN)C(=O)N[C@@H](CC(C)C)C(=O)NCC(=O)N[C@@H](C)C(=O)NCC(=O)N[C@@H](CCCCN)C(=O)N[C@@H](CCCCN)C(=O)N[C@H](C(=O)N[C@H](C(=O)N[C@@H](CS)C(=O)NCC(=O)N[C@@H](Cc1ccccc1)C(=O)N[C@@H](CO)C(=O)NCC(=O)N[C@@H](CC(C)C)C(=O)N[C@@H](CS)C(=O)O)C(C)C)[C@@H](C)CC [OdMa1] (H-GLLSGILGAGKKIVCGFSGLC-OH; N-terminus and C-terminus assumed)	MIC, S. aureus ATCC 29213	64

We next turn to a different compound, shown below.
Return MIC, S. aureus ATCC 29213 measured with Staphylococcus aureus ATCC 29213 given this compound: CC(C)C[C@H](NC(=O)CNC(=O)[C@@H](NC(=O)[C@@H](NC(=O)CNC(=O)[C@H](CS)NC(=O)[C@H](CC(C)C)NC(=O)[C@@H](NC(=O)[C@H](CCCCN)NC(=O)[C@H](CCCCN)NC(=O)CNC(=O)[C@@H](NC(=O)CNC(=O)[C@H](CC(C)C)NC(=O)[C@@H](NC(=O)[C@H](CCCCN)NC(=O)CNC(=O)[C@H](CC(C)C)NC(=O)[C@H](CC(C)C)NC(=O)CN)C(C)C)C(C)C)C(C)C)C(C)C)[C@@H](C)O)C(=O)N[C@@H](CS)C(=O)O [PeNi1] (H-GLLGKVLGVGKKVLCGVTGLC-OH)
4

====

Test system: Escherichia coli ATCC 25922
Format: cell-based
condition-context: broth microdilution in MHB, peptide 128 down to 0.5 µg/mL, 20–24 h at 37 °C, no visible growth; range of three independent experiments
Residues, ends and D or L forms follow the SMILES beside them.
Reported MIC, E. coli ATCC 25922 values for the following molecules.

molecule	MIC, E. coli ATCC 25922
CC[C@H](C)[C@H](NC(=O)CN)C(=O)N[C@@H](CC(C)C)C(=O)N[C@@H](CO)C(=O)NCC(=O)N[C@@H](CC(C)C)C(=O)N[C@@H](CC(C)C)C(=O)NCC(=O)N[C@@H](C)C(=O)NCC(=O)N[C@@H](CCCCN)C(=O)N[C@@H](CCCCN)C(=O)N[C@H](C(=O)N[C@H](C(=O)N[C@@H](CS)C(=O)NCC(=O)N[C@@H](CC(C)C)C(=O)N[C@@H](CO)C(=O)NCC(=O)N[C@@H](CC(C)C)C(=O)N[C@@H](CS)C(=O)O)C(C)C)[C@@H](C)CC [OdMa5] (H-GILSGLLGAGKKIVCGLSGLC-OH; N-terminus and C-terminus assumed)	8 to 16 µg/mL

Tell me the measured MIC, E. coli ATCC 25922 of CC[C@H](C)[C@H](NC(=O)[C@H](CCCCN)NC(=O)[C@H](CCCCN)NC(=O)CNC(=O)[C@@H](NC(=O)CNC(=O)[C@H](CC(C)C)NC(=O)[C@@H](NC(=O)CNC(=O)[C@H](CO)NC(=O)[C@H](CC(C)C)NC(=O)[C@H](CC(C)C)NC(=O)CN)C(C)C)C(C)C)C(=O)N[C@H](C(=O)N[C@@H](CS)C(=O)NCC(=O)N[C@@H](CC(C)C)C(=O)N[C@@H](CO)C(=O)NCC(=O)N[C@@H](CC(C)C)C(=O)N[C@@H](CS)C(=O)O)C(C)C [OdMa6] (H-GLLSGVLGVGKKIVCGLSGLC-OH; N-terminus and C-terminus assumed) , please.
8 to 16 µg/mL

Give the measured MIC, E. coli ATCC 25922 of CC[C@H](C)[C@H](NC(=O)[C@H](CCCCN)NC(=O)[C@H](CCCCN)NC(=O)CNC(=O)[C@H](C)NC(=O)CNC(=O)[C@H](CC(C)C)NC(=O)[C@H](CC(C)C)NC(=O)CNC(=O)[C@H](CO)NC(=O)[C@H](CC(C)C)NC(=O)[C@H](CC(C)C)NC(=O)CN)C(=O)N[C@H](C(=O)N[C@@H](CS)C(=O)NCC(=O)N[C@@H](CC(C)C)C(=O)N[C@@H](CO)C(=O)NCC(=O)N[C@@H](CCSC)C(=O)N[C@@H](CS)C(=O)O)C(C)C [OdMa3] (H-GLLSGLLGAGKKIVCGLSGMC-OH; N-terminus and C-terminus assumed) .
8 to 16 µg/mL

Given the molecule CC[C@H](C)[C@H](NC(=O)CNC(=O)[C@H](CO)NC(=O)[C@@H](NC(=O)[C@H](CC(C)C)NC(=O)CN)[C@@H](C)CC)C(=O)N[C@@H](CC(C)C)C(=O)NCC(=O)N[C@@H](C)C(=O)NCC(=O)N[C@@H](CCCCN)C(=O)N[C@@H](CCCCN)C(=O)N[C@H](C(=O)N[C@@H](CC(C)C)C(=O)N[C@@H](CS)C(=O)NCC(=O)N[C@@H](CC(C)C)C(=O)N[C@@H](CO)C(=O)NCC(=O)N[C@@H](CC(C)C)C(=O)N[C@@H](CS)C(=O)O)C(C)C [OdMa10] (H-GLISGILGAGKKVLCGLSGLC-OH; N-terminus and C-terminus assumed) , what is its reported MIC, E. coli ATCC 25922?
16 to 32 µg/mL

====

Tested on: Escherichia coli ATCC 25922
Format: cell-based
condition-context: broth microdilution in MHB, peptide 128 down to 0.5 µg/mL, 20–24 h at 37 °C, no visible growth; range of three independent experiments
Residues, ends and D or L forms follow the SMILES beside them.
reported-property: MIC, E. coli ATCC 25922

Could you tell me which MIC, E. coli ATCC 25922 is on file for CC(C)C[C@H](NC(=O)CNC(=O)[C@H](CO)NC(=O)[C@H](CC(C)C)NC(=O)CNC(=O)[C@H](CS)NC(=O)[C@H](CC(C)C)NC(=O)[C@@H](NC(=O)[C@H](CCCCN)NC(=O)[C@H](CCCCN)NC(=O)CNC(=O)[C@@H](NC(=O)CNC(=O)[C@H](CC(C)C)NC(=O)[C@@H](NC(=O)CNC(=O)[C@H](CO)NC(=O)[C@H](CC(C)C)NC(=O)[C@H](CC(C)C)NC(=O)CN)C(C)C)C(C)C)C(C)C)C(=O)N[C@@H](CS)C(=O)O [OdMa7] (H-GLLSGVLGVGKKVLCGLSGLC-OH; N-terminus and C-terminus assumed) ?
8 to 16 µg/mL

====

The reader will find reported MIC, S. aureus ATCC 29213 values listed item by item below.
Test system: Staphylococcus aureus ATCC 29213
Assay type: cell-based
condition-context: broth microdilution in MHB, peptide 128 down to 0.5 µg/mL, 20–24 h at 37 °C, no visible growth; range of three independent experiments
Residues, ends and D or L forms follow the SMILES beside them.
Give just the numeric value; µg/mL need not be written.

compound	MIC, S. aureus ATCC 29213 (µg/mL)
CC[C@H](C)[C@H](NC(=O)[C@H](CCCCN)NC(=O)[C@H](CCCCN)NC(=O)CNC(=O)[C@H](C)NC(=O)CNC(=O)[C@H](CC(C)C)NC(=O)[C@H](CC(C)C)NC(=O)CNC(=O)[C@H](CO)NC(=O)[C@H](CC(C)C)NC(=O)[C@H](CC(C)C)NC(=O)CN)C(=O)N[C@H](C(=O)N[C@@H](CS)C(=O)NCC(=O)N[C@@H](CC(C)C)C(=O)N[C@@H](CO)C(=O)NCC(=O)N[C@@H](CCSC)C(=O)N[C@@H](CS)C(=O)O)C(C)C [OdMa3] (H-GLLSGLLGAGKKIVCGLSGMC-OH; N-terminus and C-terminus assumed)	32

Continue with the compound presented below.
MIC, S. aureus ATCC 29213 for CC(C)C[C@H](NC(=O)CNC(=O)[C@H](CO)NC(=O)[C@@H](NC(=O)[C@@H](NC(=O)[C@H](CS)NC(=O)[C@H](CC(C)C)NC(=O)[C@@H](NC(=O)[C@H](CCCCN)NC(=O)[C@H](CCCCN)NC(=O)CNC(=O)[C@@H](NC(=O)CNC(=O)[C@H](CC(C)C)NC(=O)[C@@H](NC(=O)[C@H](CCCCN)NC(=O)CNC(=O)[C@H](CC(C)C)NC(=O)[C@H](CC(C)C)NC(=O)CN)C(C)C)C(C)C)C(C)C)C(C)C)C(C)C)C(=O)N[C@@H](CS)C(=O)O [PeNi2] (H-GLLGKVLGVGKKVLCVVSGLC-OH; N-terminus and C-terminus assumed) ?
4
